Below, each entry is listed with its recorded monocytes.
# METHOD: Hematology assays in cynomolgus monkeys (Example 46)
# Type: in vivo
# EXPERIMENTAL_SETUP: Day-14
Strand notation (5' to 3'): a small letter for the sugar, then the base; units joined by * are phosphorothioate-linked, units joined directly phosphodiester-linked; [ ] holds rarer units or linkages, { } end groups; capitals alone tell only the bases. e = 2'-O-(2-methoxyethyl) (MOE); [5mC] = 5-methylcytosine; d = 2'-deoxy (DNA)
EXPERIMENTAL_ENDPOINT: monocytes (%)

[
  {
    "SUBSTANCE": "ISIS 416858: MOE gapmer, nucleobases 1275 to 1318 of SEQ ID NO: 1 (Table 8) (antisense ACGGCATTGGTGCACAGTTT; MOE gapmer, wing and gap sizes not given here)",
    "EXPERIMENTAL_ENDPOINT": "monocytes",
    "UOM": "%",
    "NUMERIC_RESULT": 2.0
  },
  {
    "SUBSTANCE": "ISIS 449708: 3-8-3, 4-8-4, 2-10-2, 3-10-3 or 4-10-4 MOE microwalk gapmer (Table 46) (antisense eA*e[5mC]*eA*dG*dT*dT*dT*d[5mC]*dT*dG*dG*e[5mC]*eA*eG)",
    "EXPERIMENTAL_ENDPOINT": "monocytes",
    "UOM": "%",
    "NUMERIC_RESULT": 1.7
  },
  {
    "SUBSTANCE": "ISIS 449711: 3-8-3, 4-8-4, 2-10-2, 3-10-3 or 4-10-4 MOE microwalk gapmer (Table 46) (antisense eA*e[5mC]*dA*dG*dT*dT*dT*d[5mC]*dT*dG*dG*d[5mC]*eA*eG)",
    "EXPERIMENTAL_ENDPOINT": "monocytes",
    "UOM": "%",
    "NUMERIC_RESULT": 1.2
  },
  {
    "SUBSTANCE": "ISIS 449710: 3-8-3, 4-8-4, 2-10-2, 3-10-3 or 4-10-4 MOE microwalk gapmer (Table 46) (antisense e[5mC]*eA*e[5mC]*dA*dG*dT*dT*dT*d[5mC]*dT*dG*dG*d[5mC]*eA*eG*eG)",
    "EXPERIMENTAL_ENDPOINT": "monocytes",
    "UOM": "%",
    "NUMERIC_RESULT": 1.3
  },
  {
    "SUBSTANCE": "ISIS 445522: 5-8-5 or 6-8-6 MOE microwalk gapmer (Table 44) (antisense eG*e[5mC]*eA*e[5mC]*eA*dG*dT*dT*dT*d[5mC]*dT*dG*dG*e[5mC]*eA*eG*eG*e[5mC])",
    "EXPERIMENTAL_ENDPOINT": "monocytes",
    "UOM": "%",
    "NUMERIC_RESULT": 2.1
  },
  {
    "SUBSTANCE": "ISIS 449707: 3-8-3, 4-8-4, 2-10-2, 3-10-3 or 4-10-4 MOE microwalk gapmer (Table 46) (antisense e[5mC]*eA*e[5mC]*eA*dG*dT*dT*dT*d[5mC]*dT*dG*dG*e[5mC]*eA*eG*eG)",
    "EXPERIMENTAL_ENDPOINT": "monocytes",
    "UOM": "%",
    "NUMERIC_RESULT": 1.3
  },
  {
    "SUBSTANCE": "ISIS 449709: 3-8-3, 4-8-4, 2-10-2, 3-10-3 or 4-10-4 MOE microwalk gapmer (Table 46) (antisense eG*e[5mC]*eA*e[5mC]*dA*dG*dT*dT*dT*d[5mC]*dT*dG*dG*d[5mC]*eA*eG*eG*e[5mC])",
    "EXPERIMENTAL_ENDPOINT": "monocytes",
    "UOM": "%",
    "NUMERIC_RESULT": 4.0
  }
]
